For each record, write down the corresponding inhibition.
assayedSystem: Mitogen-activated protein kinase kinase kinase kinase 2 (Homo sapiens) (UniProt Q12851);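 also: reported value is a mean of MAP4K2 inhibition at 1 µM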
Sequence (Q12851 whole entry): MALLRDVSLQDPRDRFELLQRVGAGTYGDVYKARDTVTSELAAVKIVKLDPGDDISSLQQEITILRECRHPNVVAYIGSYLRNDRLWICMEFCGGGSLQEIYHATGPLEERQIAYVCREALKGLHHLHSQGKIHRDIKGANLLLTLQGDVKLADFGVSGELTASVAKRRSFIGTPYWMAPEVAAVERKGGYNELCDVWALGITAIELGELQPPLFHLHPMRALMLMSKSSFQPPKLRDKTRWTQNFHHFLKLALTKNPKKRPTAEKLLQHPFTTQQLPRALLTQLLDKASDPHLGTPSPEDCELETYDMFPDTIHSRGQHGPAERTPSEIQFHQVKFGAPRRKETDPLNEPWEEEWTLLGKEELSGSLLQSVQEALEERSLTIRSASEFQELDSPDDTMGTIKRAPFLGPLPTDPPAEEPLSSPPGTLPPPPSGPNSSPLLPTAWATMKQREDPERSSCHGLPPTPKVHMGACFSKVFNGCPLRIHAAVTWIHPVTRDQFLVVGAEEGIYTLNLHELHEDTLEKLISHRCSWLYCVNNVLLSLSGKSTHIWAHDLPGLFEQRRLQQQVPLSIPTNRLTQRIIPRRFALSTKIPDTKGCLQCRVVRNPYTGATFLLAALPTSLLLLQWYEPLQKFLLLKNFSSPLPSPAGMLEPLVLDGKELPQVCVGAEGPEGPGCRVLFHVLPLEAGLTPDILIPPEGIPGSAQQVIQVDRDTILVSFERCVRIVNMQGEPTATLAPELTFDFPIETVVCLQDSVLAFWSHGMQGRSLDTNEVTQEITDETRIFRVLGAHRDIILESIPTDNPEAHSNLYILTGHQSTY
particulars: at 1 µM
State just the number; it will be interpreted in %.

For the compound shown here, `COc1ccc(-c2cc3c(N)ncnc3o2)cc1` , give the reported inhibition.
4.72

For the compound shown here, `Cc1cccc(Nc2ncc(-c3ccccc3)o2)c1` , give the reported inhibition.
4.15

For the compound shown here, `Cc1ccc(O)cc1Nc1ccnc2cc(-c3ccccn3)ccc12` , give the reported inhibition.
26.4

For the compound shown here, `N#Cc1c(NC(=O)c2ccc(F)cc2)sc2c1CCCC2` , give the reported inhibition.
1.05

For the compound shown here, `CCN(CC)S(=O)(=O)c1ccc(OC)c(Nc2ncc(-c3ccccc3)o2)c1` , give the reported inhibition.
1.77

For the compound shown here, `CC(C)COC(=O)c1ccc2c(c1)/C(=C/Nc1ccc(S(N)(=O)=O)cc1)C(=O)N2` , give the reported inhibition.
14.3

For the compound shown here, `NC(=O)c1sc(-n2cnc3ccc(C(F)(F)F)cc32)cc1OCc1ccccc1Br` , give the reported inhibition.
8.19

For the compound shown here, `CCOc1ccc2c(-c3ccnc(Nc4cccc(C(F)(F)F)c4)n3)cnn2n1` , give the reported inhibition.
6.12

For the compound shown here, `CCN1CCC(CC(=O)Nc2n[nH]c3nnc(-c4cccc(F)c4F)cc23)CC1` , give the reported inhibition.
5.3

---

For each record, write down the corresponding inhibition.
assayedSystem: Testis-specific serine/threonine-protein kinase 2 (Homo sapiens) (UniProt Q96PF2);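 also: values are mean inhibition of TSSK2 activity from the GSK PKIS profiling panel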
Sequence (Q96PF2 whole entry): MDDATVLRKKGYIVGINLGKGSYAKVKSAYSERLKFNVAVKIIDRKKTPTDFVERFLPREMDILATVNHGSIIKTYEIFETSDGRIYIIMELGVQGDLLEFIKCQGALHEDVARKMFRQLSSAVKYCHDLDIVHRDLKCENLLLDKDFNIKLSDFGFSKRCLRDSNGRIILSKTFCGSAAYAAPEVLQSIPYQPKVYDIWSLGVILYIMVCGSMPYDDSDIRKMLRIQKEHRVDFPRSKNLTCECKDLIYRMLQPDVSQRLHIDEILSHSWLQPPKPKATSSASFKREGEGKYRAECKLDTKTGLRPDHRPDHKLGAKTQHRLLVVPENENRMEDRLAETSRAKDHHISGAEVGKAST
particulars: at 0.1 µM
State just the number; it will be interpreted in %.

For the compound shown here, `c1cc(-c2cnn3nc(N4CCOCC4)ccc23)nc(NC2CC2)n1` , give the reported inhibition.
0.16

For the compound shown here, `COc1cccc(-n2ncc3c(N/N=C/c4ccc(F)cc4)ncnc32)c1` , give the reported inhibition.
4.45

For the compound shown here, `c1ccc(COc2ccc(Nc3ncnc4ccc(-c5ccco5)cc34)cc2)cc1` , give the reported inhibition.
0.44

For the compound shown here, `COC(=O)Nc1nc2ccc(S(=O)(=O)c3ccc(NC(=O)Nc4cc(C(F)(F)F)ccc4F)cc3)cc2[nH]1` , give the reported inhibition.
0.12

---

assayedSystem: MAP kinase-interacting serine/threonine-protein kinase 2 (Homo sapiens) (UniProt Q9HBH9)
Sequence (Q9HBH9 whole entry, looked up): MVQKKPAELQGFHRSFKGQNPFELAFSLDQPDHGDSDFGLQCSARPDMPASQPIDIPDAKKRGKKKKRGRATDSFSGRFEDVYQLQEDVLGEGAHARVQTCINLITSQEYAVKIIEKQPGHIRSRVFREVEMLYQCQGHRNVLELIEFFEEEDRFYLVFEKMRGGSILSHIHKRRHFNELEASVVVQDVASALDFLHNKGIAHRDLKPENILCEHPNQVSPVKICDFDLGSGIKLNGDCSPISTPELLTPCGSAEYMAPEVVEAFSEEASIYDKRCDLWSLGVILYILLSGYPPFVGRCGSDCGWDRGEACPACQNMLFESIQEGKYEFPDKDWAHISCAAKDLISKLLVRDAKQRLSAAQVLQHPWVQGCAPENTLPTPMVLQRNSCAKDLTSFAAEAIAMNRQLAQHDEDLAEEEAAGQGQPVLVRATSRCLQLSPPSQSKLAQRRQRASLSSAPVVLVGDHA
particulars: at 1 µM
Description: GSK_PKIS: MNK2 mean inhibition at 1 uM [Nanosyn]
reportedProperty: inhibition (%)
State just the number; it will be interpreted in %.

For the molecule shown here, `Nc1nc(-c2cccc(Cl)c2)c(-c2ccc3ncccc3n2)s1` , give the reported inhibition.
7.56

For the molecule shown here, `COc1cc(/C=N/Nc2ncnc3[nH]ncc23)ccc1O` , give the reported inhibition.
25.7

For the molecule shown here, `COc1cc2ncn(-c3cc(OCc4ccccc4C(F)(F)F)c(C(=O)N(C)C)s3)c2cc1OC` , give the reported inhibition.
2.71

For the molecule shown here, `Clc1ccc(-c2nn3ncccc3c2-c2ccnc(Nc3ccccc3)n2)cc1` , give the reported inhibition.
1.38

For the molecule shown here, `COc1ccc(-c2cc(-c3c[nH]nc3-c3ccccn3)ccn2)cc1` , give the reported inhibition.
6.65

For the molecule shown here, `NS(=O)(=O)c1ccc(Nc2ncc(-c3ccccc3)o2)cc1` , give the reported inhibition.
18.9

For the molecule shown here, `CN1CCC(n2cnc(-c3ccc(F)cc3)c2-c2ccnc(N)n2)CC1` , give the reported inhibition.
16.9

For the molecule shown here, `COc1ccc2c(-c3ccnc(Nc4cccc(OC(F)(F)F)c4)n3)cnn2n1` , give the reported inhibition.
8.78

For the molecule shown here, `CCNC(=O)O[C@H]1CN[C@H](C#Cc2cc3ncnc(Nc4ccc(OCc5cccc(F)c5)c(Cl)c4)c3s2)C1` , give the reported inhibition.
5.72

For the molecule shown here, `CCn1c(-c2nonc2N)nc2c(C#CC(C)(C)O)nc(OC[C@H](N)c3ccccc3)cc21` , give the reported inhibition.
2.92

For the molecule shown here, `CNC(=O)c1cncc(/C=C/c2ccccc2Cl)c1` , give the reported inhibition.
17.6

For the molecule shown here, `CCOc1ccc2c(-c3ccnc(Nc4cccc(C(F)(F)F)c4)n3)cnn2n1` , give the reported inhibition.
3.49

For the molecule shown here, `O=S(=O)(CCNCc1ccc(-c2ccc3ncnc(Nc4ccc(OCc5cccc(F)c5)c(Cl)c4)c3c2)o1)c1ccccc1` , give the reported inhibition.
4.95

For the molecule shown here, `COC(=O)Nc1nc2ccc(Oc3ccc(NC(=O)Nc4cccc(Cl)c4)cc3)cc2[nH]1` , give the reported inhibition.
0.19

For the molecule shown here, `COc1cccc(-c2c[nH]c3c(N/N=C/c4ccncc4)ncnc23)c1` , give the reported inhibition.
51.1

For the molecule shown here, `COC(=O)c1sc(-n2cnc3cc(OC)c(OC)cc32)cc1OCc1ccccc1C(F)(F)F` , give the reported inhibition.
-0.04

For the molecule shown here, `c1cc(-c2cnn3nc(N4CCOCC4)ccc23)nc(NC2CC2)n1` , give the reported inhibition.
42.5

For the molecule shown here, `COc1cccc(-n2ncc3c(N/N=C/c4ccc(F)cc4)ncnc32)c1` , give the reported inhibition.
13.3

For the molecule shown here, `[O-][S+]1CCN(Cc2ccc(-c3ccc4ncnc(Nc5ccc(OCc6cccc(F)c6)c(Cl)c5)c4c3)o2)CC1` , give the reported inhibition.
6.51

For the molecule shown here, `c1ccc(-c2nc3n(c2-c2ccc4c(c2)OCO4)CCC3)nc1` , give the reported inhibition.
-0.19

For the molecule shown here, `O=C(O[C@H]1CN[C@H](C#Cc2cc3ncnc(Nc4ccc(Cc5ccccc5)cc4)c3s2)C1)N1CCOCC1` , give the reported inhibition.
48.1

For the molecule shown here, `COc1cc(N2CCN(C(C)C)CC2)ccc1Nc1nc(Nc2ccc(F)cc2C(N)=O)c2cc[nH]c2n1` , give the reported inhibition.
8.99

For the molecule shown here, `Cc1cccc(Nc2ncc(-c3ccccc3)o2)c1` , give the reported inhibition.
8.3

For the molecule shown here, `CS(=O)(=O)CCNCc1ccc(-c2ccc3ncnc(Nc4ccc(OCc5ccccc5)c(C(F)(F)F)c4)c3c2)o1` , give the reported inhibition.
4.64

For the molecule shown here, `COc1ccc(-c2cc3c(N)ncnc3o2)cc1` , give the reported inhibition.
4.21

For the molecule shown here, `CCCN1CCC(c2ccc(Nc3nc(Nc4cc(F)ccc4C(N)=O)c4cc[nH]c4n3)c(OC)c2)CC1` , give the reported inhibition.
7.76

For the molecule shown here, `Fc1ccc(-c2cc(-c3c[nH]nc3-c3ccccn3)ccn2)cc1` , give the reported inhibition.
6.06

For the molecule shown here, CC1=C(C(=O)Nc2cc(Cl)c3[nH]ncc3c2)C(c2ccc(C(F)(F)F)cc2)CC(=O)N1 (stereo unspecified) , give the reported inhibition.
5.02

For the molecule shown here, `N#Cc1c(NC(=O)CN2CCOCC2)sc2c1CCCC2` , give the reported inhibition.
6.58

For the molecule shown here, `NC(=O)c1sc(-n2cnc3ccc(C(F)(F)F)cc32)cc1OCc1ccccc1Br` , give the reported inhibition.
3.71

For the molecule shown here, `Nc1nc(-c2ccc(F)cc2)c(-c2ccc3ncccc3n2)s1` , give the reported inhibition.
5.26

---

assayedSystem: Serine/threonine-protein kinase 26 (Homo sapiens) (UniProt Q9P289);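 also: mean inhibition of MST4 kinase activity, reported from the GSK PKIS inhibitor-set screening panel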
Sequence (Q9P289 2-416 limits assumed): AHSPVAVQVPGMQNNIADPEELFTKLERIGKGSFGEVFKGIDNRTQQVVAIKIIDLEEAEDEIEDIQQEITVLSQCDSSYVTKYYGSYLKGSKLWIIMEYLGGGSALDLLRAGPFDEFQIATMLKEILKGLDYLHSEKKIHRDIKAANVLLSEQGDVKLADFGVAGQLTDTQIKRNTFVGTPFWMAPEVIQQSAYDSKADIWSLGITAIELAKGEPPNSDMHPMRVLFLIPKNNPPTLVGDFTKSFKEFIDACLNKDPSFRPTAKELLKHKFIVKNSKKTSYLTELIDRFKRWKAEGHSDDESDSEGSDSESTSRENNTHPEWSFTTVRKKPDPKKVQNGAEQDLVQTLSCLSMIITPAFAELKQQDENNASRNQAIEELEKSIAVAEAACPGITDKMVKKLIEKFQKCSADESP
particulars: at 1 µM
reportedProperty: inhibition (%)
State just the number; it will be interpreted in %.

For the molecule shown here, `Cc1cccc(Nc2ncc(-c3ccccc3)o2)c1` , give the reported inhibition.
1.87

For the molecule shown here, `Cc1ccc2c(-c3ccnc(Nc4ccccc4)n3)c(-c3ccc(F)cc3)nn2n1` , give the reported inhibition.
0

For the molecule shown here, `CCn1c(-c2nonc2N)nc2ccccc21` , give the reported inhibition.
-1.31

For the molecule shown here, `CCn1c(-c2nonc2N)nc2c(C#CC(C)(C)O)ncc(OC3CCNCC3)c21` , give the reported inhibition.
4.19

For the molecule shown here, `Clc1ccc(-c2nn3ncccc3c2-c2ccnc(Nc3ccccc3)n2)cc1` , give the reported inhibition.
2.44

For the molecule shown here, `COc1ccc(-c2cc3c(N)ncnc3o2)cc1` , give the reported inhibition.
0.97

For the molecule shown here, `COc1cc(Nc2nccc(Nc3ccc4c(C)n[nH]c4c3)n2)cc(OC)c1OC` , give the reported inhibition.
3

For the molecule shown here, `CCN(CC)S(=O)(=O)c1ccc(OC)c(Nc2ncc(-c3ccccc3)o2)c1` , give the reported inhibition.
2.13

For the molecule shown here, `N#Cc1c(NC(=O)CN2CCOCC2)sc2c1CCCC2` , give the reported inhibition.
-0.59

For the molecule shown here, `CCn1cc(-c2ccnc3[nH]ccc23)c(-c2cccc(NC(=O)Nc3ccc(OCc4ccccc4)cc3)c2)n1` , give the reported inhibition.
-5.19

For the molecule shown here, `O=C(Nc1n[nH]c2cc(-c3ccc(F)cc3)ccc12)C1CC1` , give the reported inhibition.
-1.27

For the molecule shown here, `c1ccc(COc2ccc(Nc3ncnc4ccc(-c5ccco5)cc34)cc2)cc1` , give the reported inhibition.
1.35

For the molecule shown here, `COc1cccc(-n2ncc3c(N/N=C/c4ccc(F)cc4)ncnc32)c1` , give the reported inhibition.
-2.12

For the molecule shown here, `c1ccc(-c2nc3n(c2-c2ccc4c(c2)OCO4)CCC3)nc1` , give the reported inhibition.
-1.91
